tested_on: Estrogen Receptor (ERα) in MCF-7 human ductal carcinoma breast cell line (Homo sapiens)
Construct: endogenous in cells; host or cells: MCF-7
Sequence (P03372 whole entry): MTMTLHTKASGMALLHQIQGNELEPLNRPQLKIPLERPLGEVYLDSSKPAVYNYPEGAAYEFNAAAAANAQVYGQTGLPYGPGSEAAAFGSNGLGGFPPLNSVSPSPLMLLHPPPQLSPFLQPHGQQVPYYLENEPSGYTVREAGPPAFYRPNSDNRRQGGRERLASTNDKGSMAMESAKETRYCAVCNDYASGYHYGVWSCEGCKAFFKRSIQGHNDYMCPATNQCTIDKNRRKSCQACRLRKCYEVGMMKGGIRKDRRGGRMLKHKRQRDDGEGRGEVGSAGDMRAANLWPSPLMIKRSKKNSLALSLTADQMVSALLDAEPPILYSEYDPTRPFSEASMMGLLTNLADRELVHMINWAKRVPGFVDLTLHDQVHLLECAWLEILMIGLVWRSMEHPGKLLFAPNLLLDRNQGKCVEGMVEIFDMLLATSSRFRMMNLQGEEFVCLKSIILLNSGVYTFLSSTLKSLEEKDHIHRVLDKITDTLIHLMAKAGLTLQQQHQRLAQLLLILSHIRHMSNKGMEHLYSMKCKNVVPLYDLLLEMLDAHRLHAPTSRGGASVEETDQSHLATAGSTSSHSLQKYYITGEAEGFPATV
assay_protocol: MCF-7 ER degradation assay (cell based immuno-fluorescence)
details: MCF-7 cells, 0.3 μM; ER degradation by fulvestrant at 0.3 μM is defined as 100%
Experimental: MCF-7 ER Degradation Assay The ability of compounds to down-regulate Estrogen Receptor (ER) numbers was assessed in a cell based immuno-fluorescence assay using the MCF-7 human ductal carcinoma breast cell line. […] Cells were syringed once using a sterile 18 G×1.5 inch (1.2×40 mm) broad gauge needle and cell density was measured using a Coulter Counter (Beckman). […]
property_name: ER degradation ≥ 90% at 0.3 μM

Reference set (7 entries):
structure_notation	ER degradation ≥ 90% at 0.3 μM
Cc1ncsc1-c1ccc(CNC(=O)[C@@H]2C[C@@H](O)CN2C(=O)[C@@H](NC(=O)COCCCCCN(CCOc2cc(F)c([C@@H]3c4[nH]c5ccccc5c4C[C@@H](C)N3CC(C)(C)F)c(F)c2)C(=O)OCc2ccccc2)C(C)(C)C)cc1	••
Cc1ncsc1-c1ccc([C@H](C)NC(=O)[C@@H]2C[C@@H](O)CN2C(=O)[C@@H](NC(=O)COCCCCOCCCOc2cc(F)c([C@@H]3c4[nH]c5ccccc5c4C[C@@H](C)N3CC(C)(C)F)c(F)c2)C(C)(C)C)cc1	•
Cc1ncsc1-c1ccc(CNC(=O)[C@@H]2C[C@@H](O)CN2C(=O)[C@@H](NC(=O)COCCOCCOCCOc2cc(F)c([C@@H]3c4[nH]c5ccccc5c4C[C@@H](C)N3C[C@H](C)CO)c(F)c2)C(C)(C)C)cc1	•
Cc1ncsc1-c1ccc(CNC(=O)[C@@H]2C[C@@H](O)CN2C(=O)[C@@H](NC(=O)Cc2ccc(OCCOCCNC(=O)/C=C/c3cc(F)c([C@@H]4c5[nH]c6ccccc6c5C[C@@H](C)N4CC(C)(C)F)c(F)c3)cc2)C(C)(C)C)cc1	•
Cc1ncsc1-c1ccc([C@H](C)NC(=O)[C@@H]2C[C@@H](O)CN2C(=O)[C@@H](NC(=O)COCCOCCCCOc2cc(F)c([C@@H]3c4[nH]c5ccccc5c4C[C@@H](C)N3CC(C)(C)F)c(F)c2)C(C)(C)C)cc1	••
Cc1ncsc1-c1ccc(CNC(=O)[C@@H]2C[C@@H](O)CN2C(=O)[C@@H](NC(=O)COCCOCCOCCNC(=O)c2cc(F)c([C@@H]3c4[nH]c5ccccc5c4C[C@@H](C)N3CC(C)(C)F)c(F)c2)C(C)(C)C)cc1	••
Cc1ncsc1-c1ccc(CNC(=O)[C@@H]2C[C@@H](OC(=O)[C@@H]3CCCN3)CN2C(=O)[C@@H](NC(=O)CCCCCCCCCCOc2cc(F)c([C@@H]3c4[nH]c5ccccc5c4C[C@@H](C)N3CC(C)(C)F)c(F)c2)C(C)(C)C)cc1	••

Now examine the next entry.
Please look up its ER degradation ≥ 90% at 0.3 μM: Cc1ncsc1-c1ccc(CNC(=O)[C@@H]2C[C@@H](O)CN2C(=O)[C@@H](NC(=O)COCCc2ccc(COc3cc(F)c([C@@H]4c5[nH]c6ccccc6c5C[C@@H](C)N4CC(C)(C)F)c(F)c3)nc2)C(C)(C)C)cc1
•
